- Tested on: MDA-MB-468 breast
- testDetails: NCI-60 one-dose screen, 48 h (100 = growth as untreated, 0 = no growth, -100 = all killed)
- testSettings: 10 µM unless noted
Compounds without any hit were thinned out: in the full panel of roughly 83,000, 20% have a hit.
Each entry below carries its recorded growth.
Response body: numeric value in %, unit text excluded.

Please review the entries below; each comes with its answer.
molecule	growth (%)
CN(C)c1nc(NCCNS(=O)(=O)c2ccc(C(=O)/C=C/c3ccc(C(F)(F)F)cc3)cc2)nc(Nc2ccc(F)cc2)n1	-23.6
CC(=O)Nc1cccc(Nc2nccc(N[C@@H](C)c3ccccc3)n2)c1	18.1
CC(=O)OC[C@@]1(C)C2CC[C@]3(C)C(CC=C4C5CC(C)(C)CC[C@]5(C(=O)Nc5ccc(F)cc5)CC[C@]43C)[C@@]2(C)C[C@@H](OC(C)=O)[C@@H]1OC(C)=O (stereo partly drawn)	5.58
Cc1cccc(-c2nc(Nc3ccc(C)c(S(N)(=O)=O)c3)c3ccccc3n2)c1	13.4
CC(C)CSc1nc(NCCc2c[nH]c3ccccc23)c(C#N)c(-c2ccc(F)cc2)n1	54.3

GET /values?readout=growth&system=MDA-MB-468 breast&item= COc1ccc(-c2cc(C(=O)NCc3ccccc3)nn2-c2ccc(S(C)(=O)=O)cc2)cc1OC
100

Could you do the same for CC(=O)Nc1cccc(Nc2nc(N[C@H]3CCCc4ccccc43)c3ccccc3n2)c1 , please?
101

Could you do the same for CC1(C)CC[C@]2(C(=O)Nc3ccc(Br)cc3)CC[C@]3(C)C(=CCC4[C@@]5(C)C[C@@H](O)[C@H](O)[C@@](C)(CO)C5CC[C@]43C)C2C1 (stereo partly drawn) , please?
-3.95

###

- Tested on: K-562 leukemia
- testDetails: NCI-60 one-dose screen, 48 h (100 = growth as untreated, 0 = no growth, -100 = all killed)
- testSettings: 10 µM unless noted
About 83,000 compounds went through this panel and 20% of them were active in at least one assay; those are over-represented in the sample as a whole.
Would you mind classing the entries by growth? Ranges: lower segment = under 20%, middle segment = from 20% up to 60%, upper segment = 60% and over

compound	qualitativeLabel
CN(C)CCn1c2ccccc2c2nc3cc(C(F)(F)F)ccc3nc21	lower segment
Cn1cc(-c2nc(N)nnc2-c2c[nH]c3ccc(Br)cc23)c2cc(Br)cnc21	lower segment
C=C1CC[C@@H]2[C@]3(C)COC(c4ccccc4)O[C@@H]3CC[C@@]2(C)[C@@H]1C/C=C1/C(=O)OCC1OC(C)=O (some centres undefined)	lower segment
C#CCOc1ccc(/C=N/Nc2nc(-c3cc4cc(Br)ccc4oc3=O)cs2)cc1OC	middle segment
O=C(/C=C/Nc1ccc(Cl)cc1)c1ccc2c(c1)Nc1ccccc1S2	middle segment
COc1ccc(C2=NN(c3ccccc3)C(c3ccc(OC)c(OCc4ccccc4)c3)C2)cc1OC (centres undefined)	upper segment
COC(=O)/C=C/c1cccc2c1C(=O)NC(C)(c1cc3cc4ccccc4cc3oc1=O)N2 (centres undefined)	middle segment
COc1ccc(NC(=O)Nc2ccc(OCc3ccc(F)cc3)cc2)cc1	upper segment

Just checking, what class would you give CCCSc1nc(NCCc2c[nH]c3ccccc23)c(C#N)c(-c2ccccc2)n1 here?
middle segment

###

- Test system: LOX IMVI melanoma
- testDetails: NCI-60 one-dose screen, 48 h
- testSettings: 10 µM
About 83,000 compounds went through this panel and 20% of them were active in at least one assay; those are over-represented in the sample as a whole. Activity calls are given as the source filed them. The calls were made as follows: active = growth percent below 10; inactive = the rest.
Respond using exactly one of the listed classes: T (active), F (inactive)

compound	targetOrTestSystem	qualitativeLabel
CCOC(=O)C1=C(N)N(c2ccccc2)C2=C(C(=O)CC(C)(C)C2)C1c1ccc([N+](=O)[O-])cc1 (stereo not given)	LOX IMVI melanoma	F
C#CCOc1ccc(/C=N/Nc2nc(-c3cc4cc(Br)ccc4oc3=O)cs2)cc1OC	LOX IMVI melanoma	F
C=C1CC[C@@H]2[C@]3(C)COC(c4cn[nH]c4-c4ccc(F)cc4)O[C@@H]3CC[C@@]2(C)[C@@H]1C/C=C1/C(=O)OCC1O (stereo not given in full)	LOX IMVI melanoma	T

Please state the recorded outcome for this compound: O=C(N1c2ccccc2Sc2ccccc21)n1ccc2cccnc21
F

Could you do the same for Cc1ccc(/C=C/c2n(Cc3ccc4ccccc4c3)c3ccccc3[n+]2Cc2ccc3ccccc3c2)cc1 , please?
T

Data provenance is PubChem BioAssay (NCI).
